Molecular target: T1, hAMY3R (human, UniProt P30988)
T1 sequence 1: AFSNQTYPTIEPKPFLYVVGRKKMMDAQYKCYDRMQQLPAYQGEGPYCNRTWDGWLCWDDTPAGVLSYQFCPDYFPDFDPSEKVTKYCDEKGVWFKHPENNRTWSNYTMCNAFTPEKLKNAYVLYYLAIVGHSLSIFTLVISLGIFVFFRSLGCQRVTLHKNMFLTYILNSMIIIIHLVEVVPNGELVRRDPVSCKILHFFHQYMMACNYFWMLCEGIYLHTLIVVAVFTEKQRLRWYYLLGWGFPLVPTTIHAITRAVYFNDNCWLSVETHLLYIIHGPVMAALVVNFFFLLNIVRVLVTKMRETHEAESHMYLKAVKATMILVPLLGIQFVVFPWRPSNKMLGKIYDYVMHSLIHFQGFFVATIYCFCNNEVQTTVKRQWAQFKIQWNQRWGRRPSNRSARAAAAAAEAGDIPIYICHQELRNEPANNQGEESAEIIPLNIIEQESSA
T1 sequence 2: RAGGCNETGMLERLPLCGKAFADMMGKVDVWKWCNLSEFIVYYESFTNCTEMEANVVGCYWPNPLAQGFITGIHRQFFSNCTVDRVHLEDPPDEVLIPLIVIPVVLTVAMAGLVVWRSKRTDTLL
Experiment: cell-based or functional assay
Numbered stars: 1 amine (or outer) side, 2 acyl side, 3 side chain; on linkers, the order of the positions; unused ones are H or OH. Bridge positions count the residues as written; N and C are the ends. Square brackets hold non-standard residues; d marks the D form. Ends that are not written are not given here. * marks the point of attachment. C20 diacid = O=C(O)CCCCCCCCCCCCCCCCCCC(=O)*; γGlu = O=C(O)[C@H](CCC(=O)[*:2])N[*:1]; Hyp = O=C(O)[C@@H]1C[C@@H](O)CN1
test.readout: hAMY3R EC50 (cAMP) (nM)
Give the quantity in nM, number only.

# annotated cases, reported hAMY3R EC50 (cAMP) shown
binder	hAMY3R EC50 (cAMP), nM
{C20 diacid-γGlu}-KCNTATCTVQRLAHQIQQFTDKDKDNVAPPTNVGSNG[Hyp]-NH2 (disulfide 2-7 (inferred); ends not checked) [SEQ ID NO: 35]	0.009
KCNAATCTVQWLAEQIYQFTDKDKDNVAPPTNVGSNG[Hyp]-NH2 (disulfide 2-7 (inferred); ends not checked) [SEQ ID NO: 333]	0.236
KCNTATCATQRLANFLVHSSNNFGAILPSTKVGPNGY [SEQ ID NO: 149]	0.04
GCRWGTCTVQRLAHQIYQFTDKDKDNVAPRSKISPQT[Hyp]-NH2 (disulfide 2-7 (inferred); ends not checked) [SEQ ID NO: 150]	0.04
KCNTATCTVQRLAHQIYQFTDKDKANVAPPTNVGSNG[Hyp]-NH2 (disulfide 2-7 (inferred); ends not checked) [SEQ ID NO: 26]	0.008

// below: hAMY3R EC50 (cAMP) requested for another binder
Query block: Entry KCNTATCTVQWLAHQIYQFTDADKDNVAPPTNVGSNG[Hyp]-NH2 (disulfide 2-7 (inferred); ends not checked) [SEQ ID NO: 328] : reported hAMY3R EC50 (cAMP) = ?
Result block: 0.01

Just for reference, patent US12139520B2 is where these values come from.
